- Species on record: Rattus norvegicus
- Assay Name: Open TG-GATES - Regimen: Daily Repeat
- Type: toxicity, organism-based, Sprague-Dawley
- Set-up: regimen Daily Repeat, gender Male, age 6 weeks
- Condition Summary: in vivo, po, 0 mg/kg, […], tissue Plasma, route gavage, dose level Control, time 14 day
Outcome Measure: TP (g/dL)
Numbers only, in g/dL.

>  <Compound>
CN(CCOc1ccc(CC2SC(=O)NC2=O)cc1)c1ccccn1.O=C(O)/C=C\C(=O)O (stereo not drawn) [ROSIGLITAZONE MALEATE]

>  <Number>
5.8

$$$$
>  <Compound>
O=c1ccc2ccccc2o1

>  <Number>
6

$$$$
>  <Compound>
CCCCNC(=O)NS(=O)(=O)c1ccc(C)cc1 [TOLBUTAMIDE]

>  <Number>
5.8

$$$$
>  <Compound>
COc1ccc([C@@H]2Sc3ccccc3N(CCN(C)C)C(=O)[C@@H]2OC(C)=O)cc1

>  <Number>
5.8

$$$$
>  <Compound>
CCO

>  <Number>
5.9

$$$$

Hey, can you go through the list below and give me TP for every item?
1. Nc1ccc(Cc2ccc(N)cc2)cc1
2. CCN(CC)C(=S)SSC(=S)N(CC)CC
3. CCCCC1C(=O)N(c2ccccc2)N(c2ccccc2)C1=O

*A*
[6.2, 5.8, 6.2]

Hey, can you go through the list below and give me TP for every item?
1. CC(=O)[C@@]1(O)CC[C@H]2[C@@H]3C=C(Cl)C4=CC(=O)CC[C@]4(C)[C@H]3CC[C@@]21C
2. O=C(O)c1ccccc1Nc1ccccc1
3. CC(S)C(=O)NCC(=O)O (stereo not drawn)
4. NS(=O)(=O)c1cc(C(=O)O)c(NCc2ccco2)cc1Cl [FUROSEMIDE]

*A*
[5.7, 5.9, 5.6, 6.1]

*Q* Which TP is reported for this compound? CN(C/C=C/C#CC(C)(C)C)Cc1cccc2ccccc12
*A* 5.8

* * *

Please respond with reported CRE for every item in the list.
- Species on record: Rattus norvegicus
- Assay Name: Open TG-GATES - Regimen: Daily Repeat
- Type: toxicity, organism-based, Sprague-Dawley
- Parameters: regimen Daily Repeat, gender Male, age 6 weeks
- Condition Summary: in vivo, po, 300 mg/kg, […], tissue Plasma, route gavage, dose level Middle, time 7 day
// unit must come after the numeric part

>  <Compound>
CCCCNC(=O)NS(=O)(=O)c1ccc(C)cc1 [TOLBUTAMIDE]

>  <CRE>
0.2 mg/dL

$$$$

Hey, can you go through the list below and give me CRE for every item?
1. CC(S)C(=O)NCC(=O)O (centres undefined) [TIOPRONIN]
2. CC(=O)[C@@]1(O)CC[C@H]2[C@@H]3C=C(Cl)C4=CC(=O)CC[C@]4(C)[C@H]3CC[C@@]21C [CHLORMADINONE]
3. O=C(O)c1ccccc1Nc1ccccc1 [FENAMIC ACID]

*A*
1: 0.1 mg/dL; 2: 0.2 mg/dL; 3: 0.3 mg/dL

* * *

- Species on record: Rattus norvegicus
- Assay Name: Open TG-GATES - Regimen: Daily Repeat
- Format: toxicity, organism-based, Sprague-Dawley
- Parameters: regimen Daily Repeat, gender Male, age 6 weeks
- Condition Summary: in vivo, po, 1000 mg/kg, […], tissue Plasma, route gavage, dose level High, time 28 day
Outcome Measure: PL (mg/dL)
Give bare numbers, in mg/dL.

Answered cases to consult:
>  <Molecule>
CC(S)C(=O)NCC(=O)O (centres undefined)

>  <Outcome Measure>
PL

>  <Unit Symbol>
mg/dL

>  <Number>
135

$$$$
>  <Molecule>
O=C(O)c1ccccc1Nc1ccccc1

>  <Outcome Measure>
PL

>  <Unit Symbol>
mg/dL

>  <Number>
166

$$$$

Hey, can you go through the list below and give me PL for every item?
1. CCCCNC(=O)NS(=O)(=O)c1ccc(C)cc1 [TOLBUTAMIDE]
2. CC(=O)[C@@]1(O)CC[C@H]2[C@@H]3C=C(Cl)C4=CC(=O)CC[C@]4(C)[C@H]3CC[C@@]21C

*A*
[132, 190.4]
